I'd appreciate it if you could supply inhibition at 5 min, 10 µM values for the items below.
- targetEntity: CYP3A4 (Homo sapiens)
- Construct: tissue Corning or Xenotech; host or cells: human liver microsomes
- Sequence (P08684 whole entry): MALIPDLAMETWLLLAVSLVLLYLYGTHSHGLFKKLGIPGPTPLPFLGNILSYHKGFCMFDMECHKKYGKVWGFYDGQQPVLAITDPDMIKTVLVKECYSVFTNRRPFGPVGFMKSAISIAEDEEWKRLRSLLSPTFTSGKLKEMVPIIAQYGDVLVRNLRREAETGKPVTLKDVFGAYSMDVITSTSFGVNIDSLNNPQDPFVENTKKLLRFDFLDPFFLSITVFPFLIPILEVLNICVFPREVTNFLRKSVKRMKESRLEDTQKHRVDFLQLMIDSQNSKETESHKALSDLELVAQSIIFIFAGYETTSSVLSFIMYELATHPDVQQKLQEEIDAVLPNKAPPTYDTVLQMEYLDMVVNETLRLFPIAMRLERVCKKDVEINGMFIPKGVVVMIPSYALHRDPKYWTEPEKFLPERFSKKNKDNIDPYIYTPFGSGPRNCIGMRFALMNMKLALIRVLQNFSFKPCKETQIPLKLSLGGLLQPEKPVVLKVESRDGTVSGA
- protocolNotes: CYP450 inhibition in human liver microsomes, CYP3A4 (midazolam and testosterone substrates)
- Assay type: in vitro ADME
- experimentalConditions: pH 7.4, probe midazolam, midazolam substrate, read-out: % CYP inhibition @ 10 µM 3A4 (midazolam)
Kindly answer with a numeric value in %, unit omitted.

### Prompt For the compound O=C(Nc1ccc(-c2cc3cc(F)c(-c4nnn[nH]4)cc3n2C2CCC2)cc1)C(=O)Nc1ccc(N2CCC(CO)CC2)cc1 , give its measured inhibition at 5 min, 10 µM value.
### Response 5.28

### Prompt For the compound CC1(n2c(-c3ccc(NC(=O)C(=O)Nc4ccc(N5CCC6(CCOC6)CC5)cc4)cc3)cc3cc(F)c(-c4nnn[nH]4)cc32)CCC1 , give its measured inhibition at 5 min, 10 µM value.
### Response -10.2

### Prompt For the compound O=C(Nc1ccc(-c2cc3cc(F)c(-c4nnn[nH]4)cc3n2C2CCC2)cc1)C(=O)Nc1ccc(N2CCC3(CCOC3)CC2)cc1 , give its measured inhibition at 5 min, 10 µM value.
### Response 13

---

- protocolNotes: Rat PK study (IV 1 mg/kg and PO 5 mg/kg)
- Type: in vivo, male SD rats
- experimentalConditions: male, SD, rat, plasma, 10 mg/kg; PO, dose 10 mpk
measuredEndpoint: Cmax
# number then unit; no other words

### Prompt For the molecule Cn1c(-c2cccc(NC(=O)C(=O)Nc3ccc(-c4ccsc4)cc3)c2)c(I)c2cc(C(=O)O)c(O)cc21 [Example 11a-1, reference compound] , give its measured Cmax value.
### Response 44.2 ng/mL

---

- Test system: A2780
- protocolNotes: CellTiter-Glo cell proliferation inhibition, A2780
- Assay type: cell-based
- experimentalConditions: A2780 (human ovarian cancer cell line), 72 hours; read-out: Example IC50 (µM) A2780
measuredEndpoint: IC50 (µM)
Kindly answer with a numeric value in µM, unit omitted.

### Prompt For the compound O=C(Nc1ccc(-c2csc(CO)c2)cc1)C(=O)Nc1ccc(-c2cc3cc(F)c(-c4nnn[nH]4)cc3n2C2CCC2)cc1 [Example 1] , give its measured IC50 value.
### Response 0.128

---

I'd appreciate it if you could supply IC50 values for the items below.
- targetEntity: SHP2 enzyme (catalytic domain, amino acid sequence 224-528) (Homo sapiens, UniProt Q06124)
- Construct: purchased GenScript
- Sequence (Q06124 224-528): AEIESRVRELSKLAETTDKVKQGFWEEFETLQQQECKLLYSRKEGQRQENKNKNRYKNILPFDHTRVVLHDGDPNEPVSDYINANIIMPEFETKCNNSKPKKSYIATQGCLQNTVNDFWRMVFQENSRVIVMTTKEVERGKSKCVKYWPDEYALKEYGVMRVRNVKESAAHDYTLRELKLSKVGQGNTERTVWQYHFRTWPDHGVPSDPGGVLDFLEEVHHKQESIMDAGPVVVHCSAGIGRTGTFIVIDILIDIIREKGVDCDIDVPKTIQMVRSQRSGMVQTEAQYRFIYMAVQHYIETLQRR
- protocolNotes: SHP2 enzyme inhibition assay (DiFMUP substrate, fluorescence)
- Format: biochemical
- experimentalConditions: SHP2 catalytic domain, DiFMUP substrate, 30 min pre-incubation; read-out: S HP2 I C50
# number then unit; no other words

### Prompt For the compound O=C(Nc1ccc(-c2cc3cc(F)c(-c4nnn[nH]4)cc3n2C2CCC2)cc1)C(=O)Nc1ccc(N2CC3CC(O)CC3C2)cc1 (stereo not drawn) [Example 116] , give its measured IC50 value.
### Response 63 nM

### Prompt For the compound O=C(Nc1ccc(-c2ccsc2)cc1)C(=O)Nc1ccc(-c2cc3ccc(-c4nnn[nH]4)nc3n2C2CCC2)cc1 [Example 129] , give its measured IC50 value.
### Response 59 nM

### Prompt For the compound O=C(Nc1ccc(-c2cc3cc(F)c(-c4nnn[nH]4)cc3n2C2CCC2)cc1)C(=O)Nc1ccc(N2CCC(CO)CC2)cc1 [Example 23] , give its measured IC50 value.
### Response 102 nM

### Prompt For the compound CC1(n2c(-c3ccc(NC(=O)C(=O)Nc4ccc(N5CCC6(CCC(CO)C6)CC5)cc4)cc3)cc3cc(F)c(-c4nnn[nH]4)cc32)CCC1 (stereo not drawn) [Example 107] , give its measured IC50 value.
### Response 138 nM

### Prompt For the compound CC1(CO)CCN(c2ccc(NC(=O)C(=O)Nc3ccc(-c4cc5cc(F)c(-c6nnn[nH]6)cc5n4C4CCC4)cc3)cc2)CC1 [Example 40] , give its measured IC50 value.
### Response 60 nM

### Prompt For the compound CC1(n2c(-c3ccc(NC(=O)C(=O)Nc4ccc(N5CC6CC(CO)CC6C5)cc4)cc3)cc3cc(F)c(-c4nnn[nH]4)cc32)CCC1 (stereo not drawn) [Example 120] , give its measured IC50 value.
### Response 55 nM
